# assay-protocol: MMV: MTT Cytotoxicity Assay Day 7 pi of Assay #11 (NO washout), U87-CD4-CXCR4 cells, % cell death @ 5mM compound
# Format: toxicity, cell-based
# recorded-conditions: human, u87-cd4-cxcr4, 5000 µM
Would you mind telling me the reported % Cell Death of each entry?
Could you respond with only the numeric value?

Identify % Cell Death associated with the compound O=C(CCc1ccco1)NC1CCN(CC2(c3ccc(Cl)cc3)CCC2)CC1 97

Output measured % Cell Death for this item: O=C(Nc1ccc(Cl)cc1)N1CCN(c2ccc3nncn3n2)CC1 98

Read the entry O=C(CCl)NCCOc1ccc(Cl)cc1Cl and write its reported % Cell Death. 6

Please give measured % Cell Death of the following entry: COc1ccccc1CNC(=O)CCn1c(=O)[nH]c2ccccc2c1=O -16

Give the measured % Cell Death for O=C(Nc1ccc(C23CC4CC(CC(c5ccccc5)(C4)C2)C3)cc1)c1cccs1 109

Please report % Cell Death for the following compound: COc1cc(OC)cc(C(=O)Nc2ccc(-c3nc4ccccc4[nH]3)cc2)c1 116

Read off the recorded % Cell Death for O=c1cc(NC2CCN(CCCc3ccccc3)CC2)c2cc(Cl)ccc2o1 -41

# return recorded % Cell Death for input Cc1sc2ncnc(Sc3nc4ccccc4[nH]3)c2c1C -15

Using known records, supply % Cell Death for COc1ccc(-c2cc3c(nn2)-c2ccccc2C3=O)cc1 101

State, in one line, measured % Cell Death of CCN(CC)CCn1c(=N)n(CC(O)c2ccc(Cl)c(Cl)c2)c2ccccc21.Cl (stereo not given) 52

---

# assay-protocol: MMV: MTT Cytotoxicity Assay Day 7 pi of Assay #11 (NO washout), U87-CD4-CXCR4 cells, % cell death @ 5mM compound
# Assay type: toxicity, cell-based
# recorded-conditions: human, u87-cd4-cxcr4, 5000 µM
reported-endpoint: % Cell Death
API doc: respond with a numeric literal and nothing else, no unit.

Given the compound Cc1ccc(N2C(=O)C3C(C2=O)C2(c4ccccc4)C(=O)C3(c3ccccc3)C(c3ccccc3)=C2c2ccccc2)cc1 (stereo not given) , write its reported % Cell Death. -35

Answer with the recorded % Cell Death of COc1cccc(NC(=O)[C@H](C(C)C)n2c(=O)[nH]c3ccccc3c2=O)c1 only. 7

Using known records, supply % Cell Death for CCOC(=O)c1c[nH]c2c(CC)cccc2c1=O 35

Identify the reported % Cell Death for the following entry. COc1ccc2c(c1OC)C(=O)N1c3ccccc3N=C(c3ccc(C)cc3)CC21 (stereo not given) 102

Look up and state reported % Cell Death for O=C(NC(c1ccccc1)c1ccc2cccnc2c1O)c1ccccc1 (stereo not given) 39

Quick one: give measured % Cell Death for O=C(Nc1cccc(C(F)(F)F)c1)c1cc(Cl)ccc1O 95

Identify measured % Cell Death corresponding to CCCC(c1nnnn1C1CCCCC1)N1CCN(C(=O)c2ccco2)CC1.Cl (stereo not given) 34

Annotate the compound COc1ccc(C2Sc3ccccc3N=C3C2=C(O)c2ccccc23)cc1 (stereo not given) with its measured % Cell Death. 3

Look up % Cell Death of COc1ccccc1CNC(=O)CCn1c(=O)[nH]c2ccsc2c1=O and report it. -15

Give a short answer stating reported % Cell Death for Cc1ccc(Nc2nc(N)c3ccccc3n2)cc1Cl . -31

Specify % Cell Death for CN(C)c1ccc(N2C(N)=NC(N)=NC2(C)C)cc1 and stop. 21

Quick one: give measured % Cell Death for COc1ccccc1N1C(=N)SC(=Cc2ccc(OCc3ccccc3F)cc2)C1=O 24

For the compound CN1CCN(c2ccc(Nc3c4ccccc4nc4ccccc34)cc2)CC1 , give its measured % Cell Death value. -32

Return value of % Cell Death for input Cc1ccc(C(=O)c2oc3ccc4c(C)cc(=O)oc4c3c2C)cc1 , no commentary. 92

Answer with the recorded % Cell Death for the compound listed here: CC1CCCCN1CCCNC(=O)c1ccc2c(c1)sc1nc(-c3ccc(F)cc3)cn12 (stereo not given) 61
